System: NCI-H226 lung
Measurement Notes: NCI tumour cell line growth inhibition, 48 h
Property Measured: GI50

input: Give a short answer stating reported GI50 for CCCCCCCC/C=C/CCCCCCCC1=NCC[N+]1(CCO)CCO .
output: 4.16 µM

input: Give a short answer stating reported GI50 for O=C1OCC(c2cccs2)=C1Cl .
output: 28.2 µM

input: Give a short answer stating reported GI50 for CC(=O)Nc1ccc(Sc2ccc([N+](=O)[O-])o2)cc1 .
output: 2.88 µM

input: Give a short answer stating reported GI50 for COc1ccc(C(=O)c2ccc(OC)c(OC)c2OC)cc1 .
output: 34.7 µM

input: Give a short answer stating reported GI50 for O=[N+]([O-])c1ccc(-c2nc(-c3ccccc3)c(-c3ccccc3)n2-c2ccccc2)cc1 .
output: 4.57 µM

input: Give a short answer stating reported GI50 for CCC[CH2][Sn]([CH2]CCC)([O]C(=O)c1cc(F)cc(F)c1)[O]C(=O)c1cc(F)cc(F)c1 .
output: 1.34 µM

input: Give a short answer stating reported GI50 for O=C(OCc1ccccc1)N1CCN(/[N+]([O-])=N/Oc2ccc([N+](=O)[O-])cc2[N+](=O)[O-])CC1 .
output: 3.55 µM

input: Give a short answer stating reported GI50 for Cc1ccc(C2NC(=S)NC3=C2CCOc2c3ccc3ccccc23)cc1 (stereo unspecified) .
output: > 100 µM

input: Give a short answer stating reported GI50 for CC(=O)c1c(C(F)(F)F)n([O-])c2ccc(Cl)cc2[n+]1=O .
output: 1.4 µM

input: Give a short answer stating reported GI50 for ClC1=C(Cl)C(Cl)=C(Cl)C1=C/C=C/c1ccccc1 .
output: 0.236 µM

input: Give a short answer stating reported GI50 for CCCCCCCC/C=C/CCCCCCCCC1=NCCN1CCO .
output: 9.91 µM
